The values you see were collected from paper PMC10674894.

- System: CHIKV
- Assay Name: Cytopathic effect inhibition and cell viability dose-response assay
- Format: cell-based, chikungunya virus
- Applied Conditions: Chikungunya virus, Vero, CHIKV replication in Vero cells, post-treatment, MTT at 48 hpi
pEC50: −log10 of the molar value.
Readout Type: pEC50

Qu. So what does the record say about pEC50 for Nc1nc(N)c2cc(F)ccc2n1 ?
Ans. ~4.43

###

- Test system: CHIKV DRDE-07
- Assay Name: In vitro screening against CHIKV (CPE inhibition and MTT cell viability)
- Format: cell-based, chikungunya virus
- Applied Conditions: Table S1; 72 hpi, MTT assay, CHIKV-infected Vero cells
Rule: % Cell viability below 8% gives T, anything at or above gives F.

# count of solved cases: 3
>>> category_label("Cc1ccc(/C=N/NC(=O)c2cccnc2)cc1")
"F"
>>> category_label("COc1ccc(COC(=O)C2=C(C)NC(=O)NC2c2ccc(OC)cc2)cc1 (centres unmarked)")
"T"
>>> category_label("O=C(NNC(=O)c1cccnc1)c1ccc(Cl)cc1 [DCR6, N'-(4-chlorobenzoyl)nicotinohydrazide]")
"F"

Let us examine a further case.
Qu. Criterion: % Cell viability strictly below 8%. Is it met by CC(=O)Cc1noc(-c2ccccn2)n1 ?
Ans. T

###

Give MNTD for every item shown.
- Tested on: Vero cells
- Assay Name: Cytotoxicity MTT assay in Vero cells (MNTD, CC50)
- Format: cell-based, African green monkey
- Applied Conditions: Table S1; Vero cells
One number for each entry, in µM.

>>> value_reported("O=C(N/N=C/c1cccc(Br)c1)c1ccncc1")
31.25
>>> value_reported("CCOc1cc(/C=N/NC(=O)c2ccncc2)ccc1O")
62.5
>>> value_reported("COc1ccc(COC(=O)C2=C(C)NC(=O)NC2c2ccc(OC)cc2)cc1 (centres unmarked)")
250
>>> value_reported("O=C(c1cccnc1)n1nc(-c2ccc(O)cc2)cc1-c1ccccc1")
31.25

Switching to the query record.
Qu. So what does the record say about MNTD for C/C(=N\NC(=O)c1cccnc1)c1c(O)ccc2ccccc12 ?
Ans. 31.25

###

- Test system: CHIKV DRDE-07
- Assay Name: In vitro screening against CHIKV (CPE inhibition and MTT cell viability)
- Format: cell-based, chikungunya virus
- Applied Conditions: Table S1; 72 hpi, MTT assay, CHIKV-infected Vero cells
Readout Type: % Cell viability (%)
One number for each entry, in %.

Guide cases for % Cell viability, answers given:
>>> value_reported("CC(=O)NNC(=O)c1ccncc1 [DCR13, N'-acetylisonicotinohydrazide]")
15.07
>>> value_reported("CC1=C(C(=O)OCC[N+](C)(C)C)C(c2ccc(C)cc2)NC(=O)N1 (centres unmarked)")
2.45
>>> value_reported("COc1ccc(C2c3c(ccc4ccccc34)Oc3ccc4ccccc4c32)cc1")
5.04

List the reported % Cell viability of each molecule below.
1. CC1CN(c2ccccc2C#N)CC(C)N1 (centres unmarked)
2. CC1CN(c2ccc(C#N)c(Cl)c2)CC(C)N1 (centres unmarked)
3. CCOc1ccc(C2c3c(ccc4ccccc34)Oc3ccc4ccccc4c32)cc1
4. O=C(CCl)NNC(=O)c1cccnc1 [DCR8, N'-(2-chloroacetyl)nicotinohydrazide]
5. COc1cc(Br)cc(C2C3=C(CC(C)(C)CC3=O)OC3=C2C(=O)CC(C)(C)C3)c1

Ans.
1. 13.08
2. 14.42
3. 4.05
4. 13.8
5. 8.01

###

- Tested on: Vero cells
- Assay Name: Cytotoxicity MTT assay in Vero cells (MNTD, CC50)
- Type: cell-based, African green monkey
- Applied Conditions: Table S1; Vero cells
Readout Type: MNTD (µM)
Answers are plain numbers, in µM.

>>> value_reported("CC1=C(C(=O)OCCN(C)C)C(c2ccc([N+](=O)[O-])cc2)NC(=O)N1 (stereo not shown)")
31.25
>>> value_reported("C=C(C)CCOC(=O)C1=C(C)NC(=O)NC1c1ccc(OC)cc1 (stereo not shown)")
250
>>> value_reported("CC(=O)Cc1noc(-c2ccc(Br)cc2)n1")
222.34
>>> value_reported("CC(=O)Cc1noc(C(c2ccccc2)c2ccccc2)n1")
125
>>> value_reported("CC(C)C1c2c(ccc3ccccc23)Oc2ccc3ccccc3c21")
31.25

List the reported MNTD of each compound below.
1. Clc1ccc(C2c3c(ccc4ccccc34)Oc3ccc4ccccc4c32)cc1
2. O=C1NC(c2ccc(C(F)(F)F)cc2)c2c(ccc3ccccc23)O1 (stereo not shown)
3. O=C(O)c1ccc(/C=N/NC(=O)c2cccnc2)cc1
4. Cc1ccc(-c2cc(-c3ccc(O)cc3)nn2C(=O)c2cccnc2)cc1 [DCR56]
5. Cc1ccccc1/C=N/NC(=O)c1cccnc1

Ans.
[125, 45.44, 62.5, 31.25, 31.25]

###

- System: CHIKV DRDE-07
- Assay Name: In vitro screening against CHIKV (CPE inhibition and MTT cell viability)
- Type: cell-based, chikungunya virus
- Applied Conditions: Table S1; 72 hpi, MTT assay, CHIKV-infected Vero cells
Rule: % Cell viability below 10% gives Criterion met, anything at or above gives Criterion not met.

# count of solved cases: 4
>>> category_label("COc1ccc(C2NC(=O)NC(C)=C2C(=O)OCCc2ccccc2)cc1 (centres unmarked) [DCR97]")
"Criterion not met"
>>> category_label("CCOc1ccc(-c2cc(-c3ccc(O)cc3)nn2C(=O)c2cccnc2)cc1OC [DCR58]")
"Criterion met"
>>> category_label("O=C(N/N=C/c1ccccc1Br)c1ccncc1 [DCR38]")
"Criterion not met"
>>> category_label("COc1ccc(C2NC(=O)NC(C)=C2C(=O)OCC(C)C)cc1 (centres unmarked) [DCR99]")
"Criterion not met"

Let us examine a further case.
Qu. Criterion: % Cell viability strictly below 10%. Is it met by CC1(C)CC(=O)C2=C(C1)OC1=C(C(=O)CC(C)(C)C1)C2c1ccc(Cl)cc1 [DCR122] ?
Ans. Criterion not met

###

- Tested on: CHIKV DRDE-07
- Assay Name: In vitro screening against CHIKV (CPE inhibition and MTT cell viability)
- Format: cell-based, chikungunya virus
- Applied Conditions: Table S1; 72 hpi, MTT assay, CHIKV-infected Vero cells
Readout Type: % Cell viability
Please report the result as a number followed by the unit.

Guide cases for % Cell viability, answers given:
>>> value_reported("N#Cc1ccccc1N1CCCCC1")
"14.97%"
>>> value_reported("O=C(NNC(=O)c1ccncc1)c1ccccc1 [DCR9, N'-benzoylisonicotinohydrazide]")
"9.92%"
>>> value_reported("CC1(C)CC(=O)C2=C(C1)OC1=C(C(=O)CC(C)(C)C1)C2c1cccc(O)c1")
"12.01%"
>>> value_reported("C/C(=N\\NC(=O)c1cccnc1)c1c(O)ccc2ccccc12")
"6.42%"
>>> value_reported("Cc1ccc(/C=N/NC(=O)c2ccncc2)cc1")
"1.03%"

List the reported % Cell viability of each compound below.
1. Cc1ccccc1/C=N/NC(=O)c1ccncc1
2. C#CCOC(=O)C1=C(C)NC(=O)NC1c1cccc(F)c1 (stereo not drawn)
3. CC1=C(C(=O)OCCN(C)C)C(c2ccc(N(C)C)cc2)NC(=S)N1 (stereo not drawn)
4. O=C(N/N=C/c1ccccc1[N+](=O)[O-])c1cccnc1
5. Cc1ccc(C2C3=C(CC(C)(C)CC3=O)OC3=C2C(=O)CC(C)(C)C3)cc1
6. COc1ccc(C2NC(=O)NC(C)=C2C(=O)OCCC(C)C)cc1 (stereo not drawn)

Ans.
23.8%
11.54%
10.08%
22.69%
10.21%
11.71%

List the reported % Cell viability of each compound below.
1. O=C(N/N=C/c1ccc(Cl)cc1)c1cccnc1
2. N#Cc1ccccc1NCc1ccccc1
3. C/C(=N\NC(=O)c1cccnc1)c1ccc(O)cc1
4. Clc1cccc(C2c3c(ccc4ccccc34)Oc3ccc4ccccc4c32)c1

Ans.
1. 30.15%
2. 17.97%
3. 15.55%
4. 10.84%

List the reported % Cell viability of each compound below.
1. O=C1NC(c2cccc(Cl)c2)c2c(ccc3ccccc23)O1 (stereo not drawn) [DCR67]
2. COc1cc(/C=N/NC(=O)c2cccnc2)cc(OC)c1OC
3. O=C1NC(c2ccc(OC(F)(F)F)cc2)c2c(ccc3ccccc23)O1 (stereo not drawn)
4. O=C(N/N=C/c1ccco1)c1ccncc1

Ans.
1: 10.94%; 2: 21.26%; 3: 7.44%; 4: 5%

List the reported % Cell viability of each compound below.
1. COc1cccc(C2C3=C(CC(C)(C)CC3=O)OC3=C2C(=O)CC(C)(C)C3)c1
2. CC(=O)Cc1noc(-c2ccncc2)n1

Ans.
11.19%
14.42%

###

- System: Vero cells
- Assay Name: Cytotoxicity MTT assay in Vero cells (MNTD, CC50)
- Type: cell-based, African green monkey
- Applied Conditions: Table S1; Vero cells
Give MNTD for every item shown.
Answers are plain numbers, in µM.

>>> value_reported("O=C(CCl)NNC(=O)c1cccnc1 [DCR8, N'-(2-chloroacetyl)nicotinohydrazide]")
31.25

List the reported MNTD of each compound below.
1. CC1(C)CC(=O)C2=C(C1)OC1=C(C(=O)CC(C)(C)C1)C2c1ccc(C2C3=C(CC(C)(C)CC3=O)OC3=C2C(=O)CC(C)(C)C3)cc1 [DCR133]
2. COc1ccc(C2NC(=O)NC(C)=C2C(=O)OCc2ccccc2)cc1 (stereo not drawn) [DCR102]
3. CC(=O)Cc1noc(-c2ccc([N+](=O)[O-])cc2)n1 [DCR77]
4. COc1cc(Br)cc(C2C3=C(CC(C)(C)CC3=O)OC3=C2C(=O)CC(C)(C)C3)c1 [DCR131]
5. COc1ccc(C2NC(=O)NC(C)=C2C(=O)OCCc2ccccc2)cc1 (stereo not drawn) [DCR97]

Ans.
1. 125
2. 250
3. 125
4. 125
5. 170.57

List the reported MNTD of each compound below.
1. O=[N+]([O-])c1ccc(N2CCCCC2)c([N+](=O)[O-])c1 [DCR144, 1-(2,4-Dinitro-phenyl)-piperidine]
2. O=C(O)c1ccc(/C=N/NC(=O)c2ccncc2)cc1 [DCR43]
3. COc1cccc2nc(N)nc(N)c12 [DCR 139, 5-methoxy-quinazoline-2,4-diamine]
4. O=C(N/N=C/c1cccc(Br)c1)c1cccnc1 [DCR22]
5. C/C(=N\NC(=O)c1ccncc1)c1ccccc1O [DCR44]
6. COc1ccc(C2c3c(ccc4ccccc34)Oc3ccc4ccccc4c32)cc1 [DCR113]
7. CC(=O)Cc1noc(-c2ccccn2)n1 [DCR84]

Ans.
125
31.25
250
15.6
31.25
31.25
125

List the reported MNTD of each compound below.
1. O=C(N/N=C/c1ccccc1[N+](=O)[O-])c1ccncc1 [DCR35]
2. CC(=O)Cc1noc(-c2cccc([N+](=O)[O-])c2)n1 [DCR81]

Ans.
1: 62.5; 2: 125
